System: 616215-338-R-J1-PDC complex spheroid viability;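 further: spheroids exposed to agents for seven days before viability readout; 100% = DMSO vehicle control viability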
Assay: Anticancer human tumor 616215-338-R-J1-PDC patient-derived colon adenocarcinoma cell line growth inhibition [RAS]
Settings: second compound 0.003 µM; first compound 0.000949 µM; hits give low values
Observed property: viability, T/C (%)
The figure you give is taken to be in %; do not add the unit.

q: Item CC1(C)CCC(Nc2ncc(C(F)(F)F)c(-c3c[nH]c4c(P(C)(C)=O)c(C#N)ccc34)n2)CN1 (centres undefined) + CCn1c(-c2cc(N3CCN(C)CC3)cnc2C(C)OC)c2c3cc(ccc31)-c1csc(n1)CC(NC(=O)C1CC1C)C(=O)N1CCCC(N1)C(=O)OCC(C)(C)C2 with 616215-338-R-J1-PDC complex spheroid viability - viability, T/C?
a: 122

q: Item CCc1c2c(nc3ccc(O)cc13)-c1cc3c(c(=O)n1C2)COC(=O)[C@]3(O)CC + CCn1c(-c2cc(N3CCN(C)CC3)cnc2C(C)OC)c2c3cc(ccc31)-c1csc(n1)CC(NC(=O)C1CC1C)C(=O)N1CCCC(N1)C(=O)OCC(C)(C)C2 with 616215-338-R-J1-PDC complex spheroid viability - viability, T/C?
a: 109

q: Item CC1(C)CCC(Nc2ncc(C(F)(F)F)c(-c3c[nH]c4c(P(C)(C)=O)c(C#N)ccc34)n2)CN1 (centres undefined) + CCn1c(-c2cccnc2C(C)OC)c2c3cc(ccc31)N1CCOC(CC(NC(=O)C(C(C)C)N(C)C(=O)C3(F)CCN(C(=O)C#CC(C)(C)N(C)C)CC3)C(=O)N3CCCC(N3)C(=O)OCC(C)(C)C2)C1 with 616215-338-R-J1-PDC complex spheroid viability - viability, T/C?
a: 107

q: Item CCc1c2c(nc3ccc(O)cc13)-c1cc3c(c(=O)n1C2)COC(=O)[C@]3(O)CC + CCn1c(-c2cccnc2C(C)OC)c2c3cc(ccc31)N1CCOC(CC(NC(=O)C(C(C)C)N(C)C(=O)C3(F)CCN(C(=O)C#CC(C)(C)N(C)C)CC3)C(=O)N3CCCC(N3)C(=O)OCC(C)(C)C2)C1 with 616215-338-R-J1-PDC complex spheroid viability - viability, T/C?
a: 97.9
